Give protein stability index for every item shown.
B1: ZNF263 (parent)
chain: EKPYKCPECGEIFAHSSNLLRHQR

# Variants of: B1
# test-method-notes: protein stability index of a GFP-peptide fusion (GPS, HEK-293T) (PSI 1-6); higher = more stable;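 also: lentivirally expressed fusions sorted by FACS into six bins by GFP to DsRed ratio, PSI derived from sequencing read proportions per bin multiplied by bin number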
# measurement-parameters: c terminus: a fixed tail appended
Numbers only.

INSERT INTO assay_data (sequence_input, property_measured, experimental_result) VALUES
  ('EKPYKCPECGESFAHSSNLLRHQR [I12S]', 'protein stability index', 2.98),
  ('EKPYKCPECGSIFAHSSNLLRHQR [E11S]', 'protein stability index', 1.13),
  ('EKPYKCPECGEIFAHASNLLRHQR [S16A]', 'protein stability index', 2.36);

Record protein stability index for all entries; do not skip any.
1. EKPYKCPECGDIFAHSSNLLRHQR [E11D]
2. EKPYKCPECGVIFAHSSNLLRHQR [E11V]
3. LKPYKCPECGEIFAHSSNLLRHQR [E1L]
4. EKPYKCPECGEIFAHSSNLLRWQR [H22W]
5. EKPYKCLECGEIFAHSSNLLRHQR [P7L]
6. EKPYKCPECGEIFAHSSNLLRHQN [R24N]

[2.38, 1.64, 2.53, 1.23, 2.33, 3.92]
